Experiment: Particle size of the granular carbohydrate compounds used
Type: physicochemical
Conditions: granular carbohydrate compound as used
measured endpoint: Particle Size Dav (μm)

molecule	Particle Size Dav (μm)
OC[C@@H](O)[C@@H](O)CO	147
O=C(CO)[C@@H](O)[C@H](O)[C@H](O)CO	339
OC[C@H]1O[C@H](O[C@H]2O[C@H](CO)[C@@H](O)[C@H](O)[C@H]2O)[C@H](O)[C@@H](O)[C@@H]1O	25
O[C@H]1[C@H](O)[C@@H](O)[C@H](O)[C@@H](O)[C@H]1O	280

[A] OC[C@@H](O)[C@H](O)[C@@H](O)CO
[B] OC[C@@H](O)[C@@H](O[C@H]1O[C@H](CO)[C@@H](O)[C@H](O)[C@H]1O)[C@H](O)[C@@H](O)CO
Exercise: Of the two listed items, which has the higher Particle Size Dav? First: A Second: B Refer to your chosen entry by its label in the reply.
Key: A
(A: 631 μm, B: 33 μm)

[P] OC[C@@H](O)[C@@H](O)[C@H](O)[C@@H](O)CO
[Q] OC[C@@H](O)[C@@H](O)[C@H](O)[C@H](O)CO [Mannitol, D-(−)-mannitol]
[R] O=C[C@H](O)[C@@H](O)[C@H](O[C@@H]1O[C@H](CO)[C@@H](O)[C@H](O)[C@H]1O)[C@H](O)CO
Exercise: // ascending sort on recorded Particle Size Dav # output: labels, in the requested order
Key: R, Q, P

====

Experiment: Particle size of the granular carbohydrate compounds used
Assay type: physicochemical
Details: granular carbohydrate compound as used
measured endpoint: Particle Size D50 (μm)

These recorded examples may help you get a feel for the data.
compound	units	Particle Size D50
OC[C@@H](O)[C@@H](O)CO [Erythritol, erythritol]	μm	138
OC[C@@H](O)[C@@H](O[C@H]1O[C@H](CO)[C@@H](O)[C@H](O)[C@H]1O)[C@H](O)[C@@H](O)CO [Maltitol, maltitol]	μm	30
OC[C@H]1O[C@H](O[C@H]2O[C@H](CO)[C@@H](O)[C@H](O)[C@H]2O)[C@H](O)[C@@H](O)[C@@H]1O [Trehalose, trehalose]	μm	20

[P] O[C@H]1[C@H](O)[C@@H](O)[C@H](O)[C@@H](O)[C@H]1O [Inositol, inositol]
[Q] OC[C@@H](O)[C@@H](O)[C@H](O)[C@@H](O)CO [Sorbitol, sorbitol]
[R] OC[C@@H](O)[C@@H](O)[C@H](O)[C@H](O)CO [Mannitol, D-(−)-mannitol]
Exercise: # rank_down: sort by Particle Size D50, max first # format: label list in the order the request specifies
Key: P, Q, R
(P: 247 μm, Q: 154 μm, R: 66 μm)

====

Experiment: Particle size of the granular carbohydrate compounds used
Type: physicochemical
Conditions: granular carbohydrate compound as used
measured endpoint: Particle Size D50 (μm)

compound	Particle Size D50, μm
O.OC[C@H]1O[C@@H](O[C@H]2[C@H](O)[C@@H](O)C(O)O[C@@H]2CO)[C@H](O)[C@@H](O)[C@H]1O (stereo partly drawn) [Lactose monohydrate, lactose monohydrate]	20

[I] OC[C@@H](O)[C@H](O)[C@@H](O)CO
[II] O=C[C@H](O)[C@@H](O)[C@H](O[C@@H]1O[C@H](CO)[C@@H](O)[C@H](O)[C@H]1O)[C@H](O)CO
Exercise: Return label of the item with the larger Particle Size D50. Candidates: I , II . // output: label of the selected item
Key: I
(I: 615 μm, II: 38 μm)

meta.source: patent US9278071B2
